- target or test system: D(2) dopamine receptor (Homo sapiens, UniProt P14416)
- Sequence (P14416 whole entry): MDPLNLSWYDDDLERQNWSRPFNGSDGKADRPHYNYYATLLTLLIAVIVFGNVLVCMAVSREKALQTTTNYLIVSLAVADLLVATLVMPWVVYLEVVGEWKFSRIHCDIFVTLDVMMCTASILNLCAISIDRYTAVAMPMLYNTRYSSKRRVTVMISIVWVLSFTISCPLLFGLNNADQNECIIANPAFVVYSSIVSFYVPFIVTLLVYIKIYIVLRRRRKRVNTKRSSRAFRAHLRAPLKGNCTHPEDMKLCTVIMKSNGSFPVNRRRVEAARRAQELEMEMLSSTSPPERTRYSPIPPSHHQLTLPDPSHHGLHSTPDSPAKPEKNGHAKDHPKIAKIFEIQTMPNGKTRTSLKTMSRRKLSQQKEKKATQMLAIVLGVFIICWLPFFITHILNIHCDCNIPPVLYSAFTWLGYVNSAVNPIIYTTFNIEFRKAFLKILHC
- assay notes: Displacement of [3H]U-86170 from human D2-dopamine receptor expressed in CHO K1 cells
property: Ki (nM)

(I) CCCN[C@@H]1CCc2ccc3[nH]c(C(N)=O)cc3c2C1
(II) CCCN(CC1CC1)[C@@H]1CCc2ccc3[nH]c(C(N)=O)cc3c2C1
Task: I'd appreciate it if you could identify which of I and II has the greater Ki. Use the label to indicate which entry you chose.
Output: I

* * *

- target or test system: D(2) dopamine receptor (Homo sapiens, UniProt P14416)
- assay notes: Displacement of [3H]U-86170 from human D2-dopamine receptor expressed in CHO K1 cells
property: Ki (nM)

Example results:
smiles | unit | val
CCCN(CCC)[C@@H]1CCc2ccc3[nH]c(C#N)cc3c2C1 | nM | 35
CCCN(CCCCN1C(=O)CC(C)(C)CC1=O)[C@@H]1CCc2ccc3[nH]c(C(N)=O)cc3c2C1 | nM | 38

(a) CCCN(CCCCN1C(=O)CC(C)(C)CC1=O)[C@@H]1CCc2ccc3[nH]c(C#N)cc3c2C1
(b) CCCN(CCC)[C@@H]1CCc2ccc3[nH]c(C(N)=O)cc3c2C1
Task: So which one has the bigger Ki here, a or b ? Give the label under which the chosen entry appears.
Output: b
(b: 215 nM, a: 44 nM)
